System: NCI-H460 lung
method description: NCI tumour cell line growth inhibition, 48 h
// TGI lookup, one value per entry

# substance smiles, TGI
measured = [
    ("CCC[CH2][Sn]1([CH2]CCC)[O]C(=O)c2cccc(OC)c2[O]1", "2.9 µM"),
    ("COc1cc(-c2c3c([nH]c(=O)c2C#N)-c2cc([N+](=O)[O-])ccc2CCC3)cc(OC)c1OC", "67 µM"),
    ("CN1C(=O)c2cc([N+](=O)[O-])ccc2[C@H]2C(=O)c3cc4c(cc3[C@H]21)OCO4", "0.195 µM"),
    ("O=C1Cc2ccccc2N1c1c(Cl)cccc1Cl", "> 100 µM"),
    ("Cc1nc(N)c(N2CCN(Cc3ccccc3)CC2)c(=O)[nH]1", "> 100 µM"),
    ("COc1ccccc1-c1nc2ccccc2c(=O)[nH]1", "> 100 µM"),
]

###

System: IGROV1 ovarian
method description: NCI tumour cell line growth inhibition, 48 h

# compound, limit qualifier, TGI [µM]
records = [
    ("COc1ccc2c(c1)O[C@H]1c3ccc(O)cc3OC[C@@H]21", "=", 71.6),
    ("Cc1cc(NS(=O)(=O)c2ccc(NC(=O)c3cccc4cc5ccccc5nc34)cc2)no1", "=", 64.8),
    ("O=C1C2C(C(=O)N1c1ccccc1)C1(c3ccccc3)OC2(c2ccccc2)c2ccccc21 (stereo not given)", ">", 100),
    ("CC(=O)[O-].CC(=O)[O-].O=C(N/N=C/c1cc(Cl)cc(Cl)c1[OH2+])c1ccncc1.[Zn+2]", ">", 100),
    ("CO/N=C(\\COc1ccc2c(c1)oc(=O)c1cc(OC)ccc12)c1ccc(F)cc1", "=", 42.8),
]

###

System: HOP-62 NSCLC
method description: NCI tumour cell line growth inhibition, 48 h

# compound, limit qualifier, TGI [µM]
records = [
    ("O=c1oc2cc(O)ccc2cc1-c1nc2ccccc2s1", "=", 41.6),
    ("COC(=O)c1oc2c(O)c(OC)c(Br)cc2c1C", "=", 51.4),
    ("Clc1ccc2c(c1)CC1C[N+]3=C(CCCC3)C1=C2 (stereo unspecified)", ">", 100),
    ("Cc1ccc(S(=O)(=O)N/N=C/c2oc(-c3ccccc3Cl)c(-c3ccccc3Cl)c2[N+](=O)[O-])cc1", "=", 43.5),
    ("COc1cc(CNC(=O)[C@H](Cc2ccc(O)cn2)NC(C)=O)cc(OC)c1", ">", 100),
    ("COC1=CC(=O)c2c(O)ccc(O)c2C1=O", "=", 10.9),
    ("O=C1c2ccccc2C(=O)C2C3c4ccccc4C(c4ccccc43)C12 (stereo unspecified)", ">", 100),
    ("C=CCC12CC(=O)C=C1CCC1(C2)OCCO1 (stereo unspecified)", ">", 100),
    ("Cc1ccc(S(=O)C[C@@]2(C(F)F)NC(=O)NC2=O)cc1 (stereo partly specified)", ">", 100),
    ("CS(=O)(=O)Nc1cccc(-c2ccc3c(NC(=O)C4CC4)n[nH]c3c2)c1", ">", 21.5),
    ("COc1ccc(C(=O)Cn2c(C(C)=O)nc3ccccc32)cc1", "=", 65.7),
]

###

Test system: UO-31 renal
method description: NCI tumour cell line growth inhibition, 48 h; in the data active means GI50 below about 0.43 µM; inactive means the rest
Classes used: active, inactive

# molecule, class
rows = [
    ("CCCCCCCCCCCCCCCCOC(=O)c1c(C)[nH]c(/C=C2\\N=C(c3ccc[nH]3)C=C2OC)c1C", "inactive"),
    ("CC(C)(C)c1cn2cccc(C(=O)N3CCN(CC(=O)Nc4ccc(Cl)cc4C(=O)c4ccccc4Cl)CC3)c2n1", "inactive"),
    ("CCSc1nc(N2CCCCC2)c2cn[nH]c2n1", "inactive"),
    ("O=C1/C(=C/c2ccc(Cl)cc2)CN(Cc2cn(CCNc3ccnc4cc(Cl)ccc34)nn2)C/C1=C\\c1ccc(Cl)cc1", "active"),
    ("COc1cc(-n2cc(-c3ccc(F)cc3)[nH]c2=S)cc(OC)c1OC", "inactive"),
    ("Cc1cc(NCCCCNc2ccnc3cc(Cl)ccc23)nc(Nc2ccc(C(=O)N3CCCC3)cc2)n1", "inactive"),
    ("CC1CC(C)/C(=N/NC(N)=O)C(C(O)CC2CCC(=O)NC2=O)C1 (stereo not given)", "inactive"),
    ("COc1cc(C(=O)/C=C/c2c(-c3ccc(F)cc3)nc3ncccn23)cc(OC)c1OC", "inactive"),
    ("Cc1cc(O)ccc1O", "inactive"),
    ("CCCCCCCCCCCCSC(=NC)NC", "inactive"),
]

###

System: SNB-19 CNS
method description: NCI tumour cell line growth inhibition, 48 h; in the data active = GI50 below about 0.43 µM; inactive = the rest
Classes used: active, inactive

# compound, class
records = [
    ("COc1cc(C2CC(c3ccc(Nc4ccnc5cc(Cl)ccc45)cc3)=NN2C=O)cc(OC)c1OC (configuration not stated)", "inactive"),
    ("Cn1ccnc1C(=O)/C=C/c1ccc(C(=O)Nc2ccccc2O)cc1", "inactive"),
    ("COc1ccc(Cn2cc3c(c2-c2ccc(O)cc2)CCc2cnoc2-3)cc1", "inactive"),
    ("COc1cc(Nc2ncc3c(C)nc(-c4cccc(Oc5ccccc5)c4)n3n2)cc(OC)c1OC", "inactive"),
    ("N#Cc1c(NC(=O)c2cccc3ccccc23)sc2c1CCCC2", "active"),
    ("CO/N=C(\\COc1ccc2c(c1)oc(=O)c1cc(OC)ccc12)c1ccc(F)cc1", "inactive"),
    ("C=C(C)[C@@H]1CC[C@]2(C(=O)O)CC[C@]3(C)[C@H](CC[C@@H]4[C@@]5(C)C[C@@H](CC#Cc6ccc(Br)cc6)C(=O)C(C)(C)[C@@H]5CC[C@]43C)[C@@H]12", "inactive"),
    ("Cc1cc(NCCCCNc2ccnc3cc(Cl)ccc23)nc(Nc2ccc(C(=O)N3CCCC3)cc2)n1", "inactive"),
    ("CO/N=C(\\COc1ccc2c(c1)oc(=O)c1cc(OC)ccc12)c1cccc(OC)c1", "inactive"),
    ("CCCCCCCCCCCCSC(=NC)NC", "inactive"),
    ("O=C1/C(=C/c2ccc(Cl)cc2)CN(Cc2cn(CCNc3ccnc4cc(Cl)ccc34)nn2)C/C1=C\\c1ccc(Cl)cc1", "active"),
    ("O=C(CC(O)c1ccncc1)c1ccccc1 (configuration not stated)", "inactive"),
]

###

System: NCI/ADR-RES ovarian
method description: NCI tumour cell line growth inhibition, 48 h
Classify as follows. Reported TGI greater than or equal to 20 µM: 1 (yes). Reported TGI below: 0 (no).

# compound, class
measured = [
    ("COc1ccc(N=Nc2c(C)c(C#N)c(=S)n(C3OC(COC(C)=O)C(OC(C)=O)C(OC(C)=O)C3OC(C)=O)c2-c2ccccc2)cc1 (stereo not given)", "1 (yes)"),
    ("Cc1[nH]n(-c2ccc(S(=O)(=O)O)cc2)c(=O)c1N=Nc1ccccc1", "1 (yes)"),
    ("CCOC(=O)/C=C(\\C(=O)OCC)n1cnc2c(N)ncnc21", "1 (yes)"),
    ("CC(=O)O[C@H]1[C@@H](OC2CCCC2(c2ccccc2)c2ccccc2)O[N+]([O-])=C[C@@]12COCc1cc3c(cc12)OCO3 (stereo not given in full)", "0 (no)"),
    ("O=C(Nc1cccc([N+](=O)[O-])c1)c1ccc2ccccc2c1O", "1 (yes)"),
    ("CC(C)/C(Cl)=N\\OC(=O)Nc1ccc(F)c([N+](=O)[O-])c1", "1 (yes)"),
    ("O=C(Nc1ccccc1)Nn1c(-c2cccs2)nc2ccc(I)cc2c1=O", "1 (yes)"),
    ("O=C(Nc1ccc(Cl)cc1)c1ccc([N+](=O)[O-])o1", "0 (no)"),
    ("c1cc2cc(c1)CN1CCNCCN(CCNCC1)Cc1cccc(c1)CN1CCNCCN(CCNCC1)C2", "1 (yes)"),
    ("COc1cc(/C=C/C(=O)C(C(=O)/C=C/c2ccc(OC(=O)CCNc3nnc(C)s3)c(OC)c2)C(=O)CCNc2nnc(C)s2)ccc1OC(=O)CCNc1nnc(C)s1", "1 (yes)"),
    ("O=c1oc2cc(O)ccc2cc1-c1nc2ccccc2s1", "1 (yes)"),
    ("CC1C2(C)OC(=N)C(C#N)(C(c3ccco3)O2)C1(C#N)C#N (stereo not given)", "1 (yes)"),
    ("O/N=C1/CCCCCC1NO (stereo not given)", "1 (yes)"),
    ("Cc1cc(O)ccc1O", "1 (yes)"),
    ("COc1ccc(N(C)c2nc(Cl)nc3ccn(C)c23)cc1", "1 (yes)"),
    ("O[C@@H]1CCCN1Cc1cc2cc3c(cc2c2cc(OCc4ccccc4)ccc12)OCO3", "1 (yes)"),
    ("C[N+](C)(C)C1(C(=O)[O-])CC1", "1 (yes)"),
    ("CCCC(=O)/C=C/S/C=C/C(=O)CCC", "0 (no)"),
    ("COC(=O)c1cc2c3ccccc3n3c(=O)c4cc5cc(OC)c(N(S(=O)(=O)c6ccc(C)cc6)S(=O)(=O)c6ccc(C)cc6)cc5nc4c(n1)c23", "1 (yes)"),
]
